# cell scattering score, MLP29, 0.004 nM per record follows
- system_under_test: native mouse MET on living mouse cells (mouse, UniProt P16056 25-1379)
- test_protocol: cell-based or functional assay
Numbers only; they are read as score 0-4.

Field: example entries. Status: answers known.
chimeric llama-human IgG1 mAb 71C3 (antibody, V domains shown) VH: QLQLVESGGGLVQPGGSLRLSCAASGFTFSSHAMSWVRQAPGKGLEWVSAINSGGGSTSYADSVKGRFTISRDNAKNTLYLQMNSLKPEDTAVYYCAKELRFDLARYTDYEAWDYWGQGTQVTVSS VL: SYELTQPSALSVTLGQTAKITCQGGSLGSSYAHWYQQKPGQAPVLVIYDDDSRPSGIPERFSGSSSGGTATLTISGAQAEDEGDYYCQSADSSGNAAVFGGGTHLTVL = 0
chimeric llama-human IgG1 mAb 71A3 (antibody, V domains shown) VH: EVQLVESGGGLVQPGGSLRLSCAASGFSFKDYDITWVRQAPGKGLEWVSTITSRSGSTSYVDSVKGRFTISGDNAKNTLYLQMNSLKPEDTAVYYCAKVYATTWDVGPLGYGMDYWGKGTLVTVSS VL: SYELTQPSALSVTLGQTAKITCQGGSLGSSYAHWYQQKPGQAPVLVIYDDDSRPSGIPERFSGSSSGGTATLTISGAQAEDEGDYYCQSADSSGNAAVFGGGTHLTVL = 0

Now examine the next entry.
INPUT: I am curious: what cell scattering score, MLP29, 0.004 nM value has been reported for chimeric llama-human IgG1 mAb 71G3 (antibody, V domains shown) VH: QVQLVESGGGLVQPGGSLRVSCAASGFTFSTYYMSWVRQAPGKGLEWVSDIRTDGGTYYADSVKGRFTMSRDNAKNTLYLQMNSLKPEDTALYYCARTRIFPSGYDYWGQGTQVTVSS VL: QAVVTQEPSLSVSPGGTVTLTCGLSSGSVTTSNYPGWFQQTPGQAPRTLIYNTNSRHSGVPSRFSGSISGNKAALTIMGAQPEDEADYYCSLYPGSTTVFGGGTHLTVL ?
OUTPUT: 0
